Molecular target: T1, recombinant human CD80 protein (human B7-1/CD80 protein, with His tag) (human, UniProt P33681 35-242)
T1 construct: Bought protein
T1 sequence (looked up): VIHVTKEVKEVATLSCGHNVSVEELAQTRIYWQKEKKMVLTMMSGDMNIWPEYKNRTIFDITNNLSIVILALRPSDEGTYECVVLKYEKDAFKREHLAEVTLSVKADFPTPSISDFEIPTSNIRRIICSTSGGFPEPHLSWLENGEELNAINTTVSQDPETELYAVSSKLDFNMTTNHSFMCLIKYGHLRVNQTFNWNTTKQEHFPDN
Assay: SPR (Biacore T200), antibody captured on Protein A chip, response at 200 nM antigen
RECORDED_METRIC: Response (RU)
Just so you know, I need the unit written after the number.

Give Response (RU) for each of the items listed below.
1. 10D7 (antibody, human IgG1, kappa, V domains shown, also called 10D7-WT; Ab10D7) VH: QVQLVQSGPGLVKPSETLSLTCTVSGGSISRSSYYWGWIRQPPGKGLEWIGNIFYAGSTYYNPSLKSRVTISVDTSKNQFSLKLSSVTAADTAVYYCARRITGTTGWFDPWGQGTLVTVSS VL: DIQLTQSPSSLSASVGDRVTITCRASQGIRNDLGWYQQKPGKAPKLLIYAASTLQSGVPSRFSGSGSGTDFTLTISSLQPEDFATYYCLQDYNYPRTFGQGTKVEIKR
2. 6B5 (antibody, human IgG1, kappa, V domains shown, also called 6B5-WT; Ab6B5) VH: QVQLVESGPGLVKPSQTLSLTCTVSDGSISSGGYYWSWIRQHPGKGLEWIGYIYYSGGTYYSPSLKSRVTISVDTSKNQFSLKLTSVTAADTAVYYCARRAGYSSSFDSWGQGILVTVSS VL: EIVLTQSPLSLPVTPGEPASISCRSSQSLLYSNGYTYLDWYLQKPGQSPQFLIYLGFNRASGVPDRFSGSGSGTDFTLKISRVEAEDVGVYYCMQGLQTPYTFGQGTKLEIKR
3. 10F5 (antibody, human IgG1, kappa, V domains shown, also called Ab10F5) VH: QVQLVQSGAEVKKPGSSVKVSCKASGGTFSSQAISWVRQAPGQGLEWMGRIIPMLGIGDYAQSFQGRVTITADKSTSTAYLEVSSLGSEDTAVYYCAREGIAALGTNYYYGMDVWGQGTAVTVSS VL: EIVMTQSPSSVSASVGDRVTITCRASQGISRWLAWYQQKPGKAPKLLIYVASSLQSGVPSRFSGSGSGTDFTLTISSLQPEDFATYYCQQANSFPFTFGPGTKVDIRR
4. Enoblituzumab (antibody, human IgG1, kappa, V domains shown, Humanized anti-B7-H3 antibody of MacroGenics with optimised Fc, used as the positive control; also called AbEno; enoblituzumab-IgG1-Mut) VH: EVQLVESGGGLVQPGGSLRLSCAASGFTFSSFGMHWVRQAPGKGLEWVAYISSDSSAIYYADTVKGRFTISRDNAKNSLYLQMNSLRDEDTAVYYCGRGRENIYYGSRLDYWGQGTTVTVSS VL: DIQLTQSPSFLSASVGDRVTITCKASQNVDTNVAWYQQKPGKAPKALIYSASYRYSGVPSRFSGSGSGTDFTLTISSLQPEDFATYYCQQYNNYPFTFGQGTKLEIKR

["0.2 RU", "0.6 RU", "0.7 RU", "-1.8 RU"]
